# experiment_notes: Inhibition of bovine liver beta-glucuronidase
# Parameters: species or system Bos taurus
Record form. Attribute: IC50. Fill in for each entry.
Answers are plain numbers, in µM.

O=C(O)[C@H]1NC[C@H](O)[C@@H](O)[C@@H]1O; 70

Enquiry: # return recorded IC50 for input "O=C(O)[C@H]1NC[C@H](O)[C@@H](O)[C@H]1O"
Return: 86

---

Record form. Attribute: inhibition. Fill in for each entry.
# Species: Bos taurus
# experiment_notes: Inhibition of bovine liver beta-glucuronidase at 1000 uM
One number for each entry, in %.

The examples below pair each entry with its known result.
O=C(O)[C@@H]1NCC=C[C@@H]1O; 10
O=C(O)[C@H]1NC[C@@H](O)[C@@H](O)[C@@H]1O; 14
O=C(O)[C@H]1NC[C@@H](O)[C@H](O)[C@@H]1O; 20

Record inhibition per entry; entries follow.
1. O=C(O)[C@H]1NCC=C[C@@H]1O
2. O=C(O)[C@H]1NCCC[C@H]1O

Return:
1: 19; 2: 0.18

---

# tested_system: Beta-hexosaminidase (Homo sapiens)
# experiment_notes: Inhibition of human Placental beta-N-acetylglucosaminidase
result_type: IC50 (µM)
Answers are plain numbers, in µM.

Enquiry: # return recorded IC50 for input "O=C(O)[C@H]1NCC=C[C@@H]1O"
Return: 750

---

# experiment_notes: Inhibition of bovine kidney beta-N-acetylglucosaminidase at 1000 uM
# Assay type: functional
# condition_label: Bos taurus
Record form. Attribute: inhibition at 1000 µM. Fill in for each entry.
Numbers only, in %.

O=C(O)[C@H]1NC[C@H](O)[C@H](O)[C@@H]1O; 14

Record inhibition at 1000 µM per entry; entries follow.
1. O=C(O)[C@H]1NC[C@@H](O)[C@@H](O)[C@@H]1O
2. O=C(O)[C@H]1NC[C@H](O)[C@H](O)[C@H]1O
3. O=C(O)[C@@H]1NCCC[C@@H]1O
4. O=C(O)[C@H]1NCCC[C@H]1O

Return:
0.5
5.5
47
20

Record inhibition at 1000 µM per entry; entries follow.
1. O=C(O)[C@H]1NC[C@H](O)[C@@H](O)[C@@H]1O
2. O=C(O)[C@@H]1NC[C@H](O)[C@H](O)[C@H]1O
3. O=C(O)[C@H]1NC[C@@H](O)[C@H](O)[C@H]1O
4. O=C(O)[C@@H]1NCCC[C@H]1O
5. O=C(O)[C@H]1NCC=C[C@@H]1O
6. O=C(O)[C@@H]1NC[C@@H](O)[C@H](O)[C@H]1O
7. O=C(O)[C@@H]1NCC=C[C@H]1O
8. O=C(O)[C@H]1NCCC[C@@H]1O

Return:
[13, 18, 4.8, 32, 58, 11, 15, 38]

Record inhibition at 1000 µM per entry; entries follow.
1. O=C(O)[C@@H]1NC[C@H](O)[C@@H](O)[C@@H]1O
2. O=C(O)[C@@H]1NC[C@H](O)[C@@H](O)[C@H]1O
3. O=C(O)[C@@H]1NC[C@@H](O)[C@H](O)[C@@H]1O
4. O=C(O)[C@H]1NC[C@@H](O)[C@H](O)[C@@H]1O

Return:
4.4
27
0.5
17

Record inhibition at 1000 µM per entry; entries follow.
1. O=C(O)[C@H]1NCC=C[C@H]1O
2. O=C(O)[C@@H]1NC[C@@H](O)[C@@H](O)[C@H]1O
3. O=C(O)[C@@H]1NCC=C[C@@H]1O
4. O=C(O)[C@@H]1NC[C@@H](O)[C@@H](O)[C@@H]1O
5. O=C(O)[C@H]1NC[C@H](O)[C@@H](O)[C@H]1O

Return:
1: 7.3; 2: 10; 3: 0.8; 4: 1.7; 5: 1.9
